Molecular target: Tryptophan 2,3-dioxygenase (Mus musculus) (UniProt P48776)
Sequence (P48776 whole entry): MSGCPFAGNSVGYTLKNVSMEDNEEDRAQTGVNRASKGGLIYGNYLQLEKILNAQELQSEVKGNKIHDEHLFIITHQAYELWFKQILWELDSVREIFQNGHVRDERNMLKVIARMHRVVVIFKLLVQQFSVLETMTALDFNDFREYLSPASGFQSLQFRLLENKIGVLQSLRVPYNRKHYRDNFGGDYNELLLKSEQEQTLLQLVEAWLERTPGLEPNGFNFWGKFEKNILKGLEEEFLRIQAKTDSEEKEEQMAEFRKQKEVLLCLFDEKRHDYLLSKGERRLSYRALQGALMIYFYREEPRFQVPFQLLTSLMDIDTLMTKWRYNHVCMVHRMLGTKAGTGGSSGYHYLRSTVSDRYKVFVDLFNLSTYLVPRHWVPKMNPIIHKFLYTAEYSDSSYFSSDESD
Assay: Inhibition of mouse TDO overexpressed in mouse P815B cells using L-Trp as substrate assessed as kynurenine level at 10 uM by HPLC analysis relative to control
Type: cell-based
Calls of active or inactive are those of the source. The calls are words filed in the database; no cut-off is given here.
Test readout: inhibition

Below are worked cases with known answers.
COc1ccc(-c2c[nH]c3c2C(=O)c2ccn(S(=O)(=O)c4ccc(C)cc4)c2C3=O)cc1 : inactive
COc1ccc(C(O)CNC2=CC(=O)c3c(CCNC(=O)OC(C)(C)C)cn(S(=O)(=O)c4ccc(C)cc4)c3C2=O)cc1 (stereo not given) : inactive
COc1ccc(-c2c[nH]c3c2C(=O)c2c(c(CCN)cn2S(=O)(=O)c2ccc(C)cc2)C3=O)cc1 : inactive
COc1ccc(C2CNC3=C2C(=O)c2c(CCN)cn(S(=O)(=O)c4ccc(C)cc4)c2C3=O)cc1 (stereo not given) : inactive
COc1ccc(C(O)CNC2=CC(=O)c3ccn(S(=O)(=O)c4ccc(C)cc4)c3C2=O)cc1 (stereo not given) : inactive
COc1ccc(C(O)CNC2=CC(=O)c3c(ccn3S(=O)(=O)c3ccc(C)cc3)C2=O)cc1 (stereo not given) : 1.1%
COc1ccc(C(O)CNC2=CC(=O)c3c(c(CCNC(=O)OC(C)(C)C)cn3S(=O)(=O)c3ccc(C)cc3)C2=O)cc1 (stereo not given) : inactive
COc1ccc(C2CNC3=C2C(=O)c2c(ccn2S(=O)(=O)c2ccc(C)cc2)C3=O)cc1 (stereo not given) : 3.2%
O=C1c2[nH]ccc2C(=O)c2c(-c3ccc(O)cc3)c[nH]c21 : inactive
COc1ccc(-c2c[nH]c3c2C2=NCCc4c[nH]c(c42)C3=O)cc1 : inactive

Hi! Can you tell me inhibition for each of these compounds?
1. O=C1c2[nH]cc3c2C(=NCC3)c2[nH]cc(-c3ccc(O)cc3)c21
2. COc1ccc(C2CNC3=C2C(=O)c2ccn(S(=O)(=O)c4ccc(C)cc4)c2C3=O)cc1 (stereo not given)
3. COc1ccc(-c2c[nH]c3c2C2=NCCc4cn(S(=O)(=O)c5ccc(C)cc5)c(c42)C3=O)cc1
4. COc1ccc(C2CNC3=C2C(=O)c2c(c(CCN)cn2S(=O)(=O)c2ccc(C)cc2)C3=O)cc1 (stereo not given)
5. COc1ccc(-c2c[nH]c3c2C(=O)c2c(CCN)cn(S(=O)(=O)c4ccc(C)cc4)c2C3=O)cc1

Result:
["inactive", "2.5%", "3.1%", "4.7%", "inactive"]

----------
Target: Indoleamine 2,3-dioxygenase 1 (Mus musculus)
Test: Inhibition of mouse IDO1 overexpressed in mouse P815B cells using L-Trp as substrate assessed as kynurenine level at 10 uM by HPLC analysis relative to control
Type: cell-based
Test readout: inhibition (%)
Numbers only, in %.

COc1ccc(-c2c[nH]c3c2C(=O)c2c(c(CCN)cn2S(=O)(=O)c2ccc(C)cc2)C3=O)cc1 : 26
COc1ccc(C2CNC3=C2C(=O)c2c(ccn2S(=O)(=O)c2ccc(C)cc2)C3=O)cc1 (stereo not given) : 54.2
COc1ccc(-c2c[nH]c3c2C(=O)c2c(CCN)cn(S(=O)(=O)c4ccc(C)cc4)c2C3=O)cc1 : 15.6
COc1ccc(C2CNC3=C2C(=O)c2c(CCN)cn(S(=O)(=O)c4ccc(C)cc4)c2C3=O)cc1 (stereo not given) : 26.1
COc1ccc(-c2c[nH]c3c2C(=O)c2ccn(S(=O)(=O)c4ccc(C)cc4)c2C3=O)cc1 : 19.6

Hi! Can you tell me inhibition for each of these compounds?
1. COc1ccc(C2CNC3=C2C(=O)c2ccn(S(=O)(=O)c4ccc(C)cc4)c2C3=O)cc1 (stereo not given)
2. COc1ccc(-c2c[nH]c3c2C2=NCCc4cn(S(=O)(=O)c5ccc(C)cc5)c(c42)C3=O)cc1
3. COc1ccc(-c2c[nH]c3c2C2=NCCc4c[nH]c(c42)C3=O)cc1
4. COc1ccc(C2CNC3=C2C(=O)c2c(c(CCN)cn2S(=O)(=O)c2ccc(C)cc2)C3=O)cc1 (stereo not given)
5. COc1ccc(C(O)CNC2=CC(=O)c3c(CCNC(=O)OC(C)(C)C)cn(S(=O)(=O)c4ccc(C)cc4)c3C2=O)cc1 (stereo not given)

Result:
[40.2, 32, 19.4, 40.2, 31.3]

Where do these numbers come from? They come from ChEMBL document CHEMBL2331397.
